Target Or System: full-length human Hsp90α (human), P07900
Method: BLI
Experimental Readout: pKd
Reminder that pKd is minus the log10 of a molar concentration.

Binder	Experimental Readout	Readout Value
PRPRPRPRPRPRPRPRPRPRPRPRPRPRPRPRPRPRPRPR (modifications not checked) [PR20 dipeptide repeats]	pKd	8.04

Field: next binder
The binder listed as GRGRGRGRGRGRGRGRGRGRGRGRGRGRGRGRGRGRGRGR (modifications not checked) [GR20 dipeptide repeats] has a reported pKd of 8.05
